Provide the reported koff of each item.
Target: T1, human EGFR-His antigen (human, UniProt P00533 25-645)
T1 construct: also called hEGFR-His
Assay: SPR Biacore 8K, antibody on Protein A chip, 1:1 fit
Only the number, expressed in s⁻¹, is required.

Qu. Fill in the blank: the reported koff of ZalH13 (antibody, human IgG1, kappa, V domains shown, anti-EGFR zalutumumab variant, human IgG1) VH: QVQLVESGGGVVQPGRSLRLSCAASGFTFSSYAMHWVRQAPGKGLEWVAVIWDDGSYKYYGDSVKGRFTISRDNSKNTLYLQMNSLRAEDTAVYYCARDGITMVRGVMKDYFDYWGQGTLVTVSS VL: DIQLTQSPSSLSASVGDRVTITCRASQDISSALVWYQQKPGKAPKLLIYDASSLESGVPSRFSGSESGTDFTLTISSLQPEDFATYYCQQFNSYPLTFGGGTKVEIKR is ____.
Ans. 0.000187

Qu. Fill in the blank: the reported koff of ZalH10 (antibody, human IgG1, kappa, V domains shown, anti-EGFR zalutumumab variant, human IgG1) VH: QVQLVESGGGVVQPGRSLRLSCAASGFTFSSYGMHWVRQAPGKGLEWVAVIWDDGSYKYYGDSVKGRFTISRDNSKNTLYLQMNSLRAEDTAVYYCARDGATMVRGVMKDYFDYWGQGTLVTVSS VL: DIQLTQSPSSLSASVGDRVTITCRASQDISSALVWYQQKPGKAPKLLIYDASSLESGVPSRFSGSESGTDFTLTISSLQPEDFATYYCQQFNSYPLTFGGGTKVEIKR is ____.
Ans. 0.0174

Qu. Fill in the blank: the reported koff of ZalH14 (antibody, human IgG1, kappa, V domains shown, anti-EGFR zalutumumab variant, human IgG1) VH: QVQLVESGGGVVQPGRSLRLSCAASGFTFSTYGMHWVRQAPGKGLEWVAVIWYDGSNKYYADSVKGRFTISRDNSKNTLYLQMNSLRAEDTAVYYCARDGITMVRGVMKDYFDYWGQGTLVTVSS VL: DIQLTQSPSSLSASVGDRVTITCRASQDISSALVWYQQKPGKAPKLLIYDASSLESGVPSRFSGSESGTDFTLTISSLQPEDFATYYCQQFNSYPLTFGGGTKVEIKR is ____.
Ans. 0.0275

Values from patent US20260232830A1
